Target: Cytochrome P450 2D6 (Homo sapiens)
Sequence (P10635 whole entry): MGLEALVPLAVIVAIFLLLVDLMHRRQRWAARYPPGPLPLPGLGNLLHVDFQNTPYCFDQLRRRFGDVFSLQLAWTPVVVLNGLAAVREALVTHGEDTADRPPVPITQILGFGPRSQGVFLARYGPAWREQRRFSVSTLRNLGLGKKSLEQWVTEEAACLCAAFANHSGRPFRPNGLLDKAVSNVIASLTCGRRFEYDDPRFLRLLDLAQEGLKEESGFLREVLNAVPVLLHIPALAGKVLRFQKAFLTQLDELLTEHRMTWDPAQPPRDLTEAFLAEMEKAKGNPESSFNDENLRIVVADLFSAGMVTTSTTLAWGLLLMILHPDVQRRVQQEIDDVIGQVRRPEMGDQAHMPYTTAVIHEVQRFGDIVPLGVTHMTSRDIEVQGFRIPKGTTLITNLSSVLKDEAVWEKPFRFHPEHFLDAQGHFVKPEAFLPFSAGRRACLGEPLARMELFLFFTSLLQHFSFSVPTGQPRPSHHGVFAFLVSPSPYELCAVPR
Assay: Inhibition of recombinant CYP2D6 after 30 mins by fluorescence assay
Attribute: IC50
VALUE TYPE: IC50

{"columns": ["TEST SMILES", "RESULT VALUE"],
 "data": [
  ["Cc1ncccc1[C@@H](C)c1c(CCN(C)C)sc2ccccc12", "> 10 µM"],
  ["C[C@@H](c1ccc(F)cn1)c1c(CCN(C)C)sc2ccccc12", "> 10 µM"],
  ["C[C@@H](c1ccccn1)c1c(CCN2CCC2)sc2ccccc12", "> 10 µM"]
]}
